Numbers sourced from patent US20230322785A1.

target: human A2A adenosine receptor (Homo sapiens, UniProt P29274); construct: expressed in transfected cells; host or cells: HEK293 or CHO cells; assay: A2A binding affinity, Method (A): radioligand filtration binding with [3H]SCH58261; settings: membranes of HEK293 or CHO cells expressing the human receptor
Sequence (P29274 whole entry): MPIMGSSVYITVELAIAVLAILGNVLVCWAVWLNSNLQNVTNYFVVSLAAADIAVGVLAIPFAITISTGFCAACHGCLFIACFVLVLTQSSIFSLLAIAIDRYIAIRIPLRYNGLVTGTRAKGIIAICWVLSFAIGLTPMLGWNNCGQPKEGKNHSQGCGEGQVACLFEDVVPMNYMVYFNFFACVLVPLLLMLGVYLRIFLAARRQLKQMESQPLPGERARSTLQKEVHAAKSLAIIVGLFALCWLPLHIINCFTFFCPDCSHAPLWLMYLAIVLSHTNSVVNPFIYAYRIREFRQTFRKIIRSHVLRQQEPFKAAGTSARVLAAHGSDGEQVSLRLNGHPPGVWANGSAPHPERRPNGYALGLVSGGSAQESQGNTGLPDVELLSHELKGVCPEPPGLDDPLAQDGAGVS
In this section we review reported pIC50 values for a set of molecules.
Note: pIC50 values are expressed as the negative base-10 logarithm of concentration in M.

In the examples that follow, each entry is paired with its recorded pIC50.
Entry under review: COc1cccc2c1nc(N)n1nc(CNC(=O)c3ccc(C(C)(O)C(F)(F)F)cc3)nc21 (single isomer, unassigned) [Example 2.7B] . Reported pIC50?
9.30

"COc1cccc2c1nc(N)n1nc(CNC(=O)c3ccc(C(O)(C(F)(F)F)C(F)(F)F)cc3)nc21" ?
9.52

Further cases:
Entry under review: COc1cc(F)cc2c1nc(N)n1nc(CNCc3ccc(C(O)C(F)(F)F)cc3)nc21 (single isomer, unassigned) [Example 11.7A] . Reported pIC50?
9.30

COc1cc(F)cc2c1nc(N)n1nc(CNCc3ccc(C(C)(O)C(F)(F)F)cc3)nc21 (single isomer, unassigned) [Example 11.8B] ?
9.40

"COc1cccc2c1nc(N)n1nc(CCNc3cnn(C)c3)nc21" ?
8.38

"COc1cccc2c1nc(N)n1nc(CNC(=O)c3ccc(C(C)(C)O)cc3)nc21" ?
9.22
